# subject.of.test: Neuronal acetylcholine receptor subunit alpha-7 (Homo sapiens)
# Sequence (P36544 whole entry): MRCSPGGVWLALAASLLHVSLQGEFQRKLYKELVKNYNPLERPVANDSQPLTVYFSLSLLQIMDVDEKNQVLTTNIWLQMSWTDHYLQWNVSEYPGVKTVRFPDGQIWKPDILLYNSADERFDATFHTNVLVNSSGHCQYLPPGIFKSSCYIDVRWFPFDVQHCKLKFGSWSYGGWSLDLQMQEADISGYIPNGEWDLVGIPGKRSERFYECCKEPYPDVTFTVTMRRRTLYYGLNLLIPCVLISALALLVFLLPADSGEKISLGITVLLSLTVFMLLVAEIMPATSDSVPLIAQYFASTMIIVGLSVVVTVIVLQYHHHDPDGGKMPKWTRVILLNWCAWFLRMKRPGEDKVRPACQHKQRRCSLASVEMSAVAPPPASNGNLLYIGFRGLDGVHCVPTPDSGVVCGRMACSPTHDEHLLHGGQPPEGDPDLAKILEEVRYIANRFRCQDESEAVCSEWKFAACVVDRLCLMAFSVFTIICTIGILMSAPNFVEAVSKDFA
# test: Positive allosteric modulation activity at human alpha7 nAChR expressed in Xenopus laevis oocytes assessed as increase in acetylcholine-induced channel current at 10 uM at -90 mV holding potential preincubated for 2 mins followed by co-application with acetylcholine for 10 secs by two-electrode voltage clamp method relative to control
# Assay type: cell-based
observed.property: Emax (%)

Solved entries:
Challenge: Provide only the value of recorded Emax for `Cc1ccc(-c2cnc(N)c(C(=O)Nc3c(C)cccc3Cl)c2)c(F)c1`
Response given: 372

Challenge: Provide only the value of recorded Emax for `Cc1cccc(Cl)c1NC(=O)c1cc(-c2ccoc2)cnc1N`
Response given: 111

Challenge: Provide only the value of recorded Emax for `Cc1ccc(-c2cncc(C(=O)Nc3c(C)cccc3Cl)c2)cc1`
Response given: 603

1: Cc1cccc(Cl)c1NC(=O)c1cc(-c2ccc(F)cc2Cl)cnc1N
2: Cc1cccc(Cl)c1NC(=O)c1cc(-c2ccc(F)c(Cl)c2)cnc1N
Challenge: Hi team, can someone confirm which has the larger Emax: 1 or 2 ? Thanks. Reply with the label of the item you choose.
Response given: 2
(2: 495%, 1: 186%)

a: Cc1cccc(Cl)c1NC(=O)c1cc(-c2ccc(Cl)c(F)c2)cnc1N
b: Cc1ccc(-c2cnc(N)c(C(=O)Nc3c(C)cccc3Cl)c2)cc1F
Challenge: Hi team, can someone confirm which has the larger Emax: a or b ? Thanks. Reply with the label of the item you choose.
Response given: b

A: Cc1cccc(Cl)c1NC(=O)c1cc(-c2ccc(OC(F)(F)F)cc2)cnc1N
B: Cc1cccc(Cl)c1NC(=O)c1cc(-c2cccc(F)c2)cnc1N
C: Cc1ccc(-c2cnc(N)c(C(=O)Nc3c(C)cccc3Cl)c2)cc1
D: COc1ccccc1-c1cnc(N)c(C(=O)Nc2c(C)cccc2Cl)c1
Challenge: List by increasing Emax. API: response body holds the labels in the requested order.
Response given: B, A, C, D

a: CC(=O)Nc1ccc(-c2cnc(N)c(C(=O)Nc3c(C)cccc3Cl)c2)cc1
b: Cc1cccc(Cl)c1NC(=O)c1cc(-c2ccc(C(F)(F)F)cc2)cnc1N
Challenge: Hi team, can someone confirm which has the larger Emax: a or b ? Thanks. Reply with the label of the item you choose.
Response given: b
(b: 164%, a: 109%)

a: Cc1cccc(Cl)c1NC(=O)c1cc(-c2ccc([N+](=O)[O-])cc2)cnc1N
b: CSc1ccc(-c2cnc(N)c(C(=O)Nc3c(C)cccc3Cl)c2)cc1
c: Cc1cccc(Cl)c1NC(=O)c1cc(-c2ccc(O)cc2)cnc1N
Challenge: List by increasing Emax. API: response body holds the labels in the requested order.
Response given: a, c, b
(a: 135%, c: 257%, b: 774%)

1: Cc1cc(-c2cnc(N)c(C(=O)Nc3ccccc3C)c2)ccc1F
2: Cc1cccc(Cl)c1NC(=O)c1cncc(-c2ccc(F)cc2)c1
Challenge: Hi team, can someone confirm which has the larger Emax: 1 or 2 ? Thanks. Reply with the label of the item you choose.
Response given: 2
(2: 248%, 1: 156%)

A: Cc1cccc(Cl)c1NC(=O)c1cncc(-c2ccc(Cl)cc2)c1
B: Cc1cccc(Cl)c1NC(=O)c1cc(-c2ccccc2)cnc1N
Challenge: // task: argmin of Emax over [ A , B ] Reply with the label of the item you choose.
Response given: A

Numbers sourced from ChEMBL document CHEMBL4387746.
